measurementProtocol: chemical genetic growth profiling, strain panel (AID 1159580);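 note: tested at 20 µM; growth read once vehicle control cultures reached saturation at 30 °C; 1 = growth at the plate median or of vehicle wells; lower values mean less growth of the strain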
conditionParameters: S. cerevisiae deletion strains, growth OD, locus YDR150W, strain NUM1, active compounds read low
Hit rate of the full screen: of about 5,500 compounds, about 2,000 (36%) were called active. Another 18% or so got no clear call; they are omitted. The list shows a part of the results.
valueType: normalized growth

molecule	numericValue
C1CCN2C[C@@H]3C[C@H](CN4CCCC[C@@H]34)[C@H]2C1	1.01
O=[N+]([O-])c1cc([As](=O)(O)O)ccc1O	0.987
Nc1ccc(C(=O)NCC(=O)O)cc1	1.01
O=C(NCCSCc1ccco1)Nc1cc(Cl)cc(Cl)c1	0.908
COc1ccc(-c2ccnc(SCC(=O)NCCSCc3ccco3)n2)cc1	0.991
O=C(NCCSCc1ccc(Cl)cc1)c1ccc(Cl)cc1	0.925
CC1(C)C(O)CC(O)C2(C)C1CC(=O)C1(C)C2CCC2(C)C(C(=O)O)OC(=O)C3OC321 (centres undefined)	1.02
CN/C(=C\[N+](=O)[O-])NCCSCc1ccc(CN(C)C)o1	1.02
CCCCC1=NC2(CCCC2)C(=O)N1Cc1ccc(-c2ccccc2-c2nn[nH]n2)cc1	0.97
O[N+]1=CC=CCC1=S.On1ccccc1=S.[Zn]	0.0564
OC[C@H]1O[C@@H](n2cnc3c(NCCc4ccccc4)ncnc32)C(O)[C@H]1O (some centres undefined)	0.993
Cc1cccc(C(=O)NCN2CCN(c3ccccc3C#N)CC2)c1	0.987
c1ccc2c(c1)cc1ccc3cccc4ccc2c1c34	1.02
C=CC(C1=CC(=O)C(OC)=CC1=O)c1ccccc1 (centres undefined)	0.972
Cc1onc(NC(=O)NC(=O)c2c(F)cccc2Cl)c1Br	1.01
O=S(=O)(N/N=C\c1ccc(Cl)cc1)c1ccc(-c2ccccn2)s1	0.976
C1CCN2CC3CC(CN4CCCCC34)C2C1 (centres undefined)	1.01
Nc1nc2c(ncn2C2C[C@H](O)[C@@H](CO)O2)c(=O)[nH]1 (some centres undefined)	1.02
CCn1nc(C)c(Br)c1-c1nc(-c2ccc(C(F)(F)F)cc2)no1	0.902
C=C[C@@H](C1=CC(=O)C(OC)=C(OC)C1=O)c1ccccc1	0.61
O=C(O)CCCC[C@@H]1CCSS1	0.996
O=C(NCCSCc1ccco1)c1ccc(Cl)cc1	0.815
CCCCNC(=O)NCCSCc1ccco1	1
CC1CCN(C(=O)CC#N)CC1	1.02

###

normalized growth: recorded values
measurementProtocol: chemical genetic growth profiling, strain panel (AID 1159580);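 note: tested at 20 µM; growth read once vehicle control cultures reached saturation at 30 °C; 1 = growth at the plate median or of vehicle wells; lower values mean less growth of the strain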
conditionParameters: S. cerevisiae deletion strains, growth OD, locus YLR027C, strain aat2, active compounds read low
About 2,000 (36%) of roughly 5,500 compounds were called active. Another 18% or so got no clear call; they are omitted. The list shows a part of the results.

compound	normalized growth
O=c1[nH]c(=O)n(C2C[C@@H](O)[C@@H](CO)O2)cc1F (stereo partly drawn)	0.994 (inactive)
Oc1c(Br)cc(Br)c2cccnc12	0.0544 (active)
O=[N+]([O-])c1ccc(O)c([N+](=O)[O-])c1	0.819 (active)
CC(C)NCC(O)c1ccc2ccccc2c1 (stereo not drawn)	1 (inactive)
O=[N+]([O-])c1cc(O)c(O)c([N+](=O)[O-])c1	1.02 (inactive)
O=C(O)/C=C/C=C/c1ccccc1	0.827 (active)
COC(C)(C)CCC[C@H](C)C/C=C/C(C)=C/C(=O)OC(C)C	1.01 (inactive)
C=C(CC)C(=O)c1ccc(OCC(=O)O)c(Cl)c1Cl	0.995 (inactive)
Cc1ccc2c(Cl)cc(Cl)c(O)c2n1	1.02 (inactive)
O=C(OC1Cc2c(O)cc(O)cc2OC1c1cc(O)c(O)c(O)c1-c1c(C2Oc3cc(O)cc(O)c3CC2OC(=O)c2cc(O)c(O)c(O)c2)cc(O)c(O)c1O)c1cc(O)c(O)c(O)c1 (stereo not drawn)	1.01 (inactive)
CC1(C)CCCC2(C)C3C1[C@@H](O)C2(C)C[C@H]3O (stereo partly drawn)	1 (inactive)
COc1cccc(/C=C/C(=O)O)c1C(C)C	0.989 (inactive)
CC(=O)O[C@@H]1C[C@@]2(C)[C@H](c3ccoc3)C[C@H]3O[C@]32[C@]2(C)C(=O)C(O)=C3C(C)(C)C(=O)C=C[C@]3(C)C12 (stereo partly drawn)	0.942 (inactive)
Oc1c(I)cc(Cl)c2cccnc12	0.071 (active)
Nc1ncnc2c1ncn2C1O[C@H](COP(=O)(O)O)[C@@H](O)[C@H]1O (stereo partly drawn)	1.02 (inactive)
C1CNCCN1	1.01 (inactive)
CS(=O)(=O)CCCCN=C=S	0.569 (active)
Nc1ccc(C(=O)NCC(=O)O)cc1	1.03 (inactive)
CCCC(C)C1(CC)C(=O)N=C(S)NC1=O (stereo not drawn)	0.998 (inactive)
OC[C@@H]1CCCN2CCCC[C@H]12	1.02 (inactive)
CCN(CC)CCOc1ccc2c(c1)C(=O)c1cc(OCCN(CC)CC)ccc1-2	0.996 (inactive)
CO[C@H]1/C=C/O[C@@]2(C)Oc3c(C)c(O)c4c(O)c(c5c(nc6cc(C)ccn65)c4c3C2=O)NC(=O)/C(C)=C\C=C\[C@H](C)[C@H](O)[C@@H](C)C(O)[C@@H](C)[C@H](OC(C)=O)[C@@H]1C (stereo partly drawn)	1.03 (inactive)
C=CC(C)(O)CC/C=C(\C)CCC=C(C)C (stereo not drawn)	0.967 (inactive)
CC(=O)c1c(O)c(C)c(O)c2c1OC1=CC(=O)C(C(C)=O)C(=O)C12C (stereo not drawn)	0.796 (active)
CC(=O)Nc1cc([As](=O)(O)O)ccc1O	1 (inactive)
CC(=O)NCCCS(=O)(=O)O	1.02 (inactive)
Nc1ncn([C@@H]2O[C@H](CO)[C@@H](O)[C@H]2O)c(=O)n1	0.985 (inactive)
CN(C)CCOc1ccc(/C(=C(/CCCl)c2ccccc2)c2ccccc2)cc1	0.0598 (active)
CN[C@H](CC(=O)O)C(=O)O	1.03 (inactive)
O=C(O)c1ccccc1Nc1cccc(C(F)(F)F)c1	0.865 (active)
COc1cc2c(c(OC)c1OC)-c1ccc(OC)c(=O)cc1[C@@H](NC(C)=O)CC2	1.01 (inactive)
Oc1c(Cl)cc(Cl)c2cccnc12	0.0596 (active)
O=C(O)c1ccccc1Nc1ccccc1	0.956 (inactive)
CN/C(=C\[N+](=O)[O-])NCCSCc1ccc(CN(C)C)o1	0.989 (inactive)
C=CCC1(C(C)CCC)C(=O)N=C(S)NC1=O (stereo not drawn)	0.979 (inactive)
O=C1C=CC2=C3c4cc(O)c(O)cc4CC3(O)COC2=C1O (stereo not drawn)	1.01 (inactive)
C=CC(C1=CC(=O)C=CC1=O)c1ccccc1 (stereo not drawn)	1.01 (inactive)
O=C1C=CC2=C3c4cc(O)c(O)cc4C[C@@]3(O)COC2=C1	0.979 (inactive)
Nc1ccc([As](=O)(O)O)cc1	1 (inactive)
O=[N+]([O-])c1cc([As](=O)(O)O)ccc1O	0.97 (inactive)
Nc1ccc(S(=O)(=O)Nc2ccccn2)cc1	1.01 (inactive)
CCN(CC)CCNC(=O)c1cc(S(C)(=O)=O)ccc1OC	0.963 (inactive)
CN(C)CCOC(C)(c1ccccc1)c1ccccn1 (stereo not drawn)	0.997 (inactive)
CCN(CC)CCOc1ccc(/C(=C(\Cl)c2ccccc2)c2ccccc2)cc1	0.093 (active)
O=C1CCCC2C3CC(CN12)[C@@H]1CCCCN1C3 (stereo partly drawn)	0.99 (inactive)
C1CCN2CC3CC(CN4CCCCC34)C2C1 (stereo not drawn)	1.01 (inactive)
CCCCC(CC)CN1CN(CC(CC)CCCC)CC(C)(N)C1 (stereo not drawn)	0.0535 (active)
CC(=O)Oc1ccc(Cl)c2cccnc12	0.0554 (active)
